Target: T1, NLpoly11S
T1 chain: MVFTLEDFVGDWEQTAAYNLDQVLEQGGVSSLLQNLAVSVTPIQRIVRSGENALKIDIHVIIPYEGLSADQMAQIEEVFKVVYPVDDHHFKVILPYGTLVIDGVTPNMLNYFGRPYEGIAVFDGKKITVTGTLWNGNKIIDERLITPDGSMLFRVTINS
Assay: luminescence complementation titration, one-site specific binding
Parameter: pKd
For clarity, pKd is expressed as the negative log10 of concentration in mol/L.

Requested field: pKd. Item: VTGYRLFEEIL [NLpep114]
3.70

Now try GVTGWRLCERILA [NLpep1] .
5.61
